Observation type: melting point

Consider the worked cases shown below.
* Cl.O=C(N[n+]1ccccc1)c1ccc(NCc2ccc(OC(F)(F)F)cc2)cc1.[Cl-] | 204 to 206 °C
* CC(C)(C)OC(=O)Nc1ccc(C(=O)[N-][n+]2ccccc2)cc1 [Compound C1-57] | 251 to 253 °C

Quick check: melting point of O=C([N-][n+]1ccccc1)c1ccc(Oc2ccc(OC(F)(F)F)cc2)cc1 [Compound C1-8] ?
111 to 113 °C

Try the molecule `O=C([N-][n+]1ccccc1)c1ccc(NS(=O)(=O)c2ccc(C(F)(F)F)cc2)cc1`
199 to 203 °C

Proceed to CC(C)(C)OC(=O)N(Cc1ccc(OC(F)(F)F)cc1)c1ccc(C(=O)[N-][n+]2ccccc2)cc1 [Compound C2-9]
183 to 184 °C

----------
Counter-ions that a name gives are not always drawn.
Observation type: melting point

• O=C([N-][n+]1ccccc1)c1ccc(NC(=O)c2ccc(C(F)(F)F)cc2)cc1 = 287 to 289 °C
• O=C([N-][n+]1ccccc1)c1ccc(SCC(F)(F)C(F)(F)C(F)(F)C(F)(F)C(F)(F)F)cc1 (as salt: salt) = 132 to 134 °C
• Cc1cccc[n+]1[N-]C(=O)c1ccc(C2CC2c2ccc(Cl)cc2)cc1 (centres unmarked) = 140 to 144 °C
• O=C([N-][n+]1ccccc1)c1ccc(/C=N/OCC(F)(F)F)cc1 = 142 to 143 °C

Entry under review: `O=C([N-][n+]1ccccc1)c1ccc(C(=O)Nc2ccc(OC(F)(F)F)cc2)cc1` . Reported melting point?
281 to 283 °C

Can you handle `O=C([N-][n+]1ccccc1)c1ccc(OC/C=C\Cl)cc1` next?
101 to 104 °C

Continue with `O=C([N-][n+]1ccccc1)c1ccc(OC/C=C/Cl)cc1`
161 to 162 °C

And what about the compound `O=C([N-][n+]1ccccc1)c1ccc(Cc2ccc(C(F)(F)F)cc2)cc1` ?
180 to 183 °C

The reported measurements were obtained from patent US20220267272A1.
